Target: Angiotensin-converting enzyme (Homo sapiens, UniProt P12821)
Sequence (P12821 whole entry): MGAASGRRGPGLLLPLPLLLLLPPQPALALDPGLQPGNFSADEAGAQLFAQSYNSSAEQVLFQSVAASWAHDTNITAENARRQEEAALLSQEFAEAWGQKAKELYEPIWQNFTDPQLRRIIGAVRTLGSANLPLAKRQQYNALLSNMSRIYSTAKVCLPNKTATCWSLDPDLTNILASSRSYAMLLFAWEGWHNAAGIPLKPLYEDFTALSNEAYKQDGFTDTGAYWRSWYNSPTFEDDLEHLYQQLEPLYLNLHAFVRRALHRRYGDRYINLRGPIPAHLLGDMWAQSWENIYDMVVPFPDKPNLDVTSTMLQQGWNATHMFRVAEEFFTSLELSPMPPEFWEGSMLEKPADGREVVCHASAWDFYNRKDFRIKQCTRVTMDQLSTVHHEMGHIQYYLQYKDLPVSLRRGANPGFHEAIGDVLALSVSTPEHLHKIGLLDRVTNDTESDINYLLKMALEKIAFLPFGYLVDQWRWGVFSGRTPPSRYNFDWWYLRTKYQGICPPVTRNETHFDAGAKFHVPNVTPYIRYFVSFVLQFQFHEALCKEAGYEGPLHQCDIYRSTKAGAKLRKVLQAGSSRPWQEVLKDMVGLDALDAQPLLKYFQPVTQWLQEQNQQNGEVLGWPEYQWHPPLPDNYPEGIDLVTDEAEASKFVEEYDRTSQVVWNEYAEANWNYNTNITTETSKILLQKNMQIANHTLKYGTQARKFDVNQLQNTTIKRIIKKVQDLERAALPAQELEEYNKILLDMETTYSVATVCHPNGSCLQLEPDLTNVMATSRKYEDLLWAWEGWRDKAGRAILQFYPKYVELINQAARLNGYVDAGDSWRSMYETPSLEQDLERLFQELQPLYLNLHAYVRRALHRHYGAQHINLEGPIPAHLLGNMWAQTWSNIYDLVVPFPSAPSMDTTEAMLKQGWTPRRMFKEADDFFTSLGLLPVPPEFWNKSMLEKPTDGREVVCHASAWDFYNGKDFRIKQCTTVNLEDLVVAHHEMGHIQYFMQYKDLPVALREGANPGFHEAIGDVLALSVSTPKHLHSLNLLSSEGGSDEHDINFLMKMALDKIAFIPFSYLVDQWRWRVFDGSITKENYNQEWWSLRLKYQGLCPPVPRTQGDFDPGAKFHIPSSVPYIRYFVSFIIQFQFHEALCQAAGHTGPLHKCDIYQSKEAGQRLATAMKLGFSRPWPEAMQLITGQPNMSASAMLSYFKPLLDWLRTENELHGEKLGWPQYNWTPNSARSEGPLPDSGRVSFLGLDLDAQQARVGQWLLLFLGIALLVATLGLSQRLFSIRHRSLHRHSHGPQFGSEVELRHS
observed_property: IC50 (mM)
Use mM as the unit, but write only the number.

Prompt: Angiotensin-converting enzyme (Homo sapiens, UniProt P12821) / IC50 / `O=C(O)[C@H]1O[C@@H](Oc2cc3oc(-c4ccccc4)cc(=O)c3c(O)c2O)[C@H](O)[C@@H](O)[C@@H]1O` : value?
Response: 2.24

###

Experiment: Oral bioavailability in monkey
Type: ADME, organism-based, Macaca mulatta
Settings: rhesus monkey, in vivo
observed_property: bioavailability (%)
Use % as the unit, but write only the number.

Prompt: // query bioavailability value for entry `O=c1cc(-c2ccccc2)oc2cc(O)c(O)c(O)c12`
Response: 13.1
